Kindly state RBA (relative binding affinity) for each of the entries shown.
# target system: SlSCPx-2 (Spodoptera litura, UniProt D1GJ60)
# measurement protocol: 1,8-ANS fluorescence displacement (competitive binding) assay, wild type rSlSCPx-2
Write the quantity with the unit trailing the number.

# example entries with known answers
>>> result("CC(=O)Nc1ccc(Nc2nc(-c3ccc(Cl)c(Cl)c3)cs2)cc1 [AeSCPI-1, reference compound]")
"31%"
>>> result("CC(C)[C@@H](C)/C=C/[C@@H](C)[C@H]1CC[C@H]2C3=CC=C4C[C@@H](O)CC[C@]4(C)[C@H]3CC[C@]12C [Ergosterol]")
"30%"

Read the next record carefully.
[in] Dear colleague, I am looking for the recorded RBA (relative binding affinity) of the following compound: CCc1ccc(C(=O)/C=C/Nc2ccc(NC(C)=O)cc2)cc1 [AH-487/41731687]
[out] 1166%

====

# target system: SlSCPx-2 F53A (Spodoptera litura, UniProt D1GJ60, F443A)
# measurement protocol: biochemical
outcome measure: pIC50
Numbers only, as −log10 of the molar value.

>>> numeric_value("CCCCCCCCCCCCCCCC(=O)O")
4.14

[in] Dear colleague, I am looking for the recorded pIC50 of the following molecule: CC(C)CCC[C@@H](C)[C@H]1CC[C@H]2[C@@H]3CC=C4C[C@@H](O)CC[C@]4(C)[C@H]3CC[C@]12C [Cholesterol, reference compound]
[out] 2.14

====

Kindly state IC50 for each of the entries shown.
# target system: SlSCPx-2 F89W (Spodoptera litura, UniProt D1GJ60, F479W)
# measurement protocol: biochemical
# Protocol: Binding of the fluorescent probe 1, 8-ANS to SlSCPx-2 can be competed with physiological ligands. SlSCPx-2 at 15 µM was incubated with 1, 8-ANS at 15 µM in the reaction buffer (pH 7.0) at room temperature for 2.5 min. After the incubation, each potential ligand at a serial of concentration (0–100 µM) was added into the 1, 8-ANS-protein mixture for another 2.5 min and the fluorescence intensity of the 1,8-ANS-protein complex was measured as previously described. […]

>>> result("CC(C)CCC[C@@H](C)[C@H]1CC[C@H]2[C@@H]3CC=C4C[C@@H](O)CC[C@]4(C)[C@H]3CC[C@]12C [Cholesterol, reference compound]")
"5.58 µM"

Read the next record carefully.
[in] Dear colleague, I am looking for the recorded IC50 of the following compound: CCCCCCCCCCCCCCCC(=O)O [Palmitic acid]
[out] 77.5 µM

====

# target system: SlSCPx-2 F110A (Spodoptera litura, UniProt D1GJ60, F500A)
# measurement protocol: biochemical
outcome measure: IC50 (µM)
One number for each entry, in µM.

[in] Dear colleague, I am looking for the recorded IC50 of the following compound: CCCCCCCCCCCCCCCC(=O)O
[out] 41.7

====

Kindly state IC50 for each of the entries shown.
# target system: SlSCPx-2 Q131A (Spodoptera litura, UniProt D1GJ60, Q521A)
# measurement protocol: biochemical
# Procedure: Binding of the fluorescent probe 1, 8-ANS to SlSCPx-2 can be competed with physiological ligands. SlSCPx-2 at 15 µM was incubated with 1, 8-ANS at 15 µM in the reaction buffer (pH 7.0) at room temperature for 2.5 min. […] To calculate binding activity of the ligands and the protein, the fluorescence intensity of the controls were subtracted from the total fluorescence intensity of the 1, 8-ANS-protein complex in the presence of ligands tested. […]
Numbers only, in mM.

>>> numeric_value("CCCCCCCCCCCCCCCC(=O)O")
0.355

[in] Dear colleague, I am looking for the recorded IC50 of the following molecule: CC(C)CCC[C@@H](C)[C@H]1CC[C@H]2[C@@H]3CC=C4C[C@@H](O)CC[C@]4(C)[C@H]3CC[C@]12C [Cholesterol, reference compound]
[out] 2.69

====

# target system: SlSCPx-2 F89A (Spodoptera litura, UniProt D1GJ60, F479A)
# measurement protocol: biochemical
outcome measure: pIC50
Answers are plain numbers, as −log10 of the molar value.

[in] Dear colleague, I am looking for the recorded pIC50 of the following compound: CC(C)CCC[C@@H](C)[C@H]1CC[C@H]2[C@@H]3CC=C4C[C@@H](O)CC[C@]4(C)[C@H]3CC[C@]12C [Cholesterol, reference compound]
[out] 2.76

====

# target system: SlSCPx-2 W66E (Spodoptera litura, UniProt D1GJ60, W456E)
# measurement protocol: biochemical
outcome measure: IC50 (µM)
Numbers only, in µM.

>>> numeric_value("CCCCCCCCCCCCCCCC(=O)O")
67.3

Read the next record carefully.
[in] Dear colleague, I am looking for the recorded IC50 of the following compound: CC(C)CCC[C@@H](C)[C@H]1CC[C@H]2[C@@H]3CC=C4C[C@@H](O)CC[C@]4(C)[C@H]3CC[C@]12C [Cholesterol, reference compound]
[out] 974

====

# target system: SlSCPx-2 F53W (Spodoptera litura, UniProt D1GJ60, F443W)
# measurement protocol: biochemical
outcome measure: IC50 (mM)
Numbers only, in mM.

>>> numeric_value("CCCCCCCCCCCCCCCC(=O)O")
5.78

[in] Write down the reported IC50 of CC(C)CCC[C@@H](C)[C@H]1CC[C@H]2[C@@H]3CC=C4C[C@@H](O)CC[C@]4(C)[C@H]3CC[C@]12C [Cholesterol, reference compound] , test system: SlSCPx-2 F53W (Spodoptera litura, UniProt D1GJ60, F443W).
[out] 4.67

====

Kindly state pIC50 for each of the entries shown.
# target system: SlSCPx-2 I115M (Spodoptera litura, UniProt D1GJ60, I505M)
# measurement protocol: biochemical
One number for each entry, as −log10 of the molar value.

>>> numeric_value("CCCCCCCCCCCCCCCC(=O)O")
2.18

Read the next record carefully.
[in] Dear colleague, I am looking for the recorded pIC50 of the following compound: CC(C)CCC[C@@H](C)[C@H]1CC[C@H]2[C@@H]3CC=C4C[C@@H](O)CC[C@]4(C)[C@H]3CC[C@]12C [Cholesterol, reference compound]
[out] 4.46

====

# target system: SlSCPx-2 (Spodoptera litura)
# measurement protocol: 1,8-ANS fluorescence displacement (competitive binding) assay, wild type rSlSCPx-2
# experimental parameters: wild type; displacement of 15 µM 1,8-ANS from 15 µM SlSCPx-2, pH 7.0; read-out: IC50
# Protocol: Binding of the fluorescent probe 1, 8-ANS to sterol carrier protein (SlSCPx-2) is measured by relative increase in fluorescent intensity. Steady-state fluorescence spectra were measured on a Cary Eclipse fluorescence spectrophotometer (Varian, Mulgrave, Australia) using a 1-cm path length cuvette. The binding was monitored by measuring the fluorescence signal between 400 and 600 nm following excitation at 350 nm. […]
One threshold, 60 µM, splits the recorded IC50 values: lower ones are satisfied, equal or higher ones are not satisfied.

>>> label("CCCCCCOC(=O)c1ccc(NC(=O)CCC)cc1")
"satisfied"
>>> label("CC(C)CCC[C@@H](C)[C@H]1CC[C@H]2[C@@H]3CC=C4C[C@@H](O)CC[C@]4(C)[C@H]3CC[C@]12C [Cholesterol, reference compound]")
"satisfied"
>>> label("COc1cccc(-n2sc3c(c2=S)-c2cc(Cl)ccc2NC3(C)C)c1 [AeSCPI-2, reference compound]")
"satisfied"
>>> label("CCCCCCCC(=O)O [Octanoate, reference compound]")
"not satisfied"
>>> label("CCCCC/C=C\\C/C=C\\CCCCCCCC(=O)O")
"not satisfied"

Now turn to the next compound.
[in] Does the reported IC50 of Cc1cc(OCCCCc2c(C)n[nH]c2C)ccc1Cl stay below 60 µM?
[out] satisfied

====

# target system: SlSCPx-2 (Spodoptera litura)
# measurement protocol: 1,8-ANS fluorescence displacement (competitive binding) assay, wild type rSlSCPx-2
Kindly state IC50 for each of the entries shown.
Write the quantity with the unit trailing the number.

# example entries with known answers
>>> result("CCCCC/C=C\\C/C=C\\C/C=C\\C/C=C\\CCCC(=O)O [Arachidonate, arachidonic acid]")
"18.1 µM"
>>> result("CC(C)[C@@H](C)/C=C/[C@@H](C)[C@H]1CC[C@H]2C3=CC=C4C[C@@H](O)CC[C@]4(C)[C@H]3CC[C@]12C")
"168 µM"
>>> result("CCCCCCCC/C=C\\CCCCCCCC(=O)O")
"24.4 µM"

Read the next record carefully.
[in] Dear colleague, I am looking for the recorded IC50 of the following compound: CC[C@H](/C=C/[C@@H](C)[C@H]1CC[C@H]2[C@@H]3CC=C4C[C@@H](O)CC[C@]4(C)[C@H]3CC[C@]12C)C(C)C
[out] 190 µM

====

Kindly state pIC50 for each of the entries shown.
# target system: SlSCPx-2 T128A (Spodoptera litura, UniProt D1GJ60, T518A)
# measurement protocol: biochemical
Numbers only, as −log10 of the molar value.

>>> numeric_value("CC(C)CCC[C@@H](C)[C@H]1CC[C@H]2[C@@H]3CC=C4C[C@@H](O)CC[C@]4(C)[C@H]3CC[C@]12C [Cholesterol, reference compound]")
4.68

Read the next record carefully.
[in] Dear colleague, I am looking for the recorded pIC50 of the following compound: CCCCCCCCCCCCCCCC(=O)O
[out] 4.48
